Provenance of the data: the supplement of paper PMC12042874

test: amyloid nucleation score (Sup35N fusion, yeast selection) (log enrichment); library NNK2; higher = more nucleation; inactive = no reads after selection;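 note: zero at mode of non-aggregating sequences after 7 days selection at 30°C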
If the reported amyloid nucleation score equals or exceeds 0.6, assign yes (1). If not, assign no (0).

Worked examples, 5 substances total:
INNLRSCLSMY
no (0)
YSCRGEVKLKCDTSVGGPRR
yes (1)
NWVMVLGLGVCKSIWLLPMV
no (0)
RLDSMMVAYNAT
yes (1)
LFERLELFWYNEGHIMGFGL
yes (1)

Determine whether measured amyloid nucleation score meets or exceeds 0.6 for `PHCRSLETH`
no (0)

Also check `TYVLSGEGEIKA`
yes (1)

Try this substance too: `TPSECRCWEEFHGWTHLLRL`
no (0)

Moving on to the next substance: `PGCHEVSKF`
no (0)

Item: `AISVKKWSFHEKKRNTMLT`
no (0)

###

test: amyloid nucleation score (Sup35N fusion, yeast selection) (log enrichment); library NNK3; higher = more nucleation; inactive = no reads after selection
MEASUREMENT_TYPE: amyloid nucleation score

Example entries and their recorded answers appear below.
SWYGQLLCVTVVRYHCAPCG
inactive
LVYPSFLLFKSIASHDSTGD
inactive
STIAGPFLKFARSGTCPPVP
-0.776
TYKIIRYFLNLICSFRGPMP
inactive
YTDSLVLPHGHMIGRVQSFY
inactive

Value sought for every listed substance: amyloid nucleation score.
1. YFIRVILPFQLTLVVIWYKF
2. ERRNRMFSWCWCSSSLLDAE

1: inactive; 2: -0.08

Lab note: each substance below needs its amyloid nucleation score filled in.
1. IYYPIMCAAVAYLLSSRFRC
2. ISQFHYLGRIST
3. VSDIGCMGVDSLSPGYHNIV
4. LFMINLDPASMVHMTPCFTN
5. RDIASQC
6. VSASILS
7. AEHYVRYRRCSATWRICWMY

1. inactive
2. inactive
3. inactive
4. inactive
5. -0.698
6. inactive
7. inactive

###

experiment: amyloid nucleation score (Sup35N fusion, yeast selection) (log enrichment); library NNK2; higher = more nucleation; inactive = no reads after selection
MEASUREMENT_TYPE: amyloid nucleation score

Consider the worked cases shown below.
AMQVVTVLNATACEMWAMGL
7.5
CIFYKVGLFFPCWYIVSVLS
-2.03
FTTPSRS
0.623
SGFEDVHAVVRFLIGVQYGG
-0.515
WYGFFTVLWSKTVRLDFNPM
-1.05

Count: 8. Required value per item: amyloid nucleation score.
1. SERFDRAY
2. RHICIFMNRMSYMDLWPALL
3. FSEWRIGKNMIFCDVIDVCE
4. CCKMGRRDLRFLSDFVLCKL
5. YSVSVRLA
6. TNWGNAVSSAMRLGSL
7. VTDCMSVRITLLMCSHGFKH
8. FCGQKTNFNCLDETLLIR

-1.2
inactive
1.94
inactive
-0.553
0.438
7.3
1.09

Would you mind giving amyloid nucleation score for every substance in the list below?
1. FEDIFCWVY
2. PMICEHAGHSGWH
3. PVCWAAFRYTYKARMKRWSK
4. CFAVAKEWLNAAVHGVGQFP

1. -1.79
2. 1.11
3. 5.06
4. 0.123

###

assay: amyloid nucleation score (Sup35N fusion, yeast selection) (log enrichment); library NNK1; higher = more nucleation; inactive = no reads after selection
Everything with amyloid nucleation score lower than 0.5 is FALSE; everything else, including exactly 0.5, is TRUE.

NWCVLALIN
TRUE

Would you say `FERRCYRVSDHVAQVLHDPT` shows amyloid nucleation score at minimum 0.5?
TRUE

Again, but for `HGAFMVPT`
TRUE

Same thing, different substance: `HSLLVMQDVCPE`
TRUE

Consider next the substance `TLWVNIG` in the same way.
FALSE

Try the substance `LSVIFTLSFLTAIFAVGIWS`
FALSE

Record: `YVYDSVAVHGGKTLEGEGYG`
FALSE

One more substance: `STLSAYCPTILA`
FALSE

Moving on to the next substance: `STAAVHCRMRTRFQLRRLRD`
FALSE

Also `GYILPLLDVDYVKSVMICFW` , if possible.
TRUE

Record: `HRCGLPASFIHHFVCDRAVG`
FALSE
